Source listed as PubChem BioAssay AID288.

Test system: BDF1 mice, M5076 sarcoma s.c., survival/tumor T/C
Assay: NCI In Vivo Anticancer Drug Screen. Data for tumor model Sarcoma M5076 (subcutaneous) in B6D2F1 (BDF1) mice
Settings: endpoint: median survival time; dose: 200.0 mg/kg/injection; schedule: Q01DX009 (ip); vehicle: saline with Tween-80; higher = longer survival
Inconclusive results are not listed.

[
  {
    "compound": "COc1ccc(/C=N/NC(=O)C(=O)Nc2ccc(Cl)c([N+](=O)[O-])c2)cc1OC",
    "T/C": "97 % of control"
  },
  {
    "compound": "CCN1Cc2c(/C=C/c3ccccc3)nc3ccc(OC)cc3c2N(c2cccc(Cl)c2)C1",
    "T/C": "105 % of control"
  },
  {
    "compound": "CCc1ccc(NC(=O)/C=C\\C(=O)O)cc1",
    "T/C": "91 % of control"
  },
  {
    "compound": "COc1cc(COC(=O)Nc2ccccc2F)cc(OC)c1OC",
    "T/C": "94 % of control"
  },
  {
    "compound": "C[c-]1[c-][c-][c-][c-]1.C[c-]1[c-][c-][c-][c-]1.[C-]#[O+].[C-]#[O+].[C-]#[O+].[C-]#[O+].[C-]#[O+].[C-]#[O+].[Mo].[Mo]",
    "T/C": "94 % of control"
  },
  {
    "compound": "CCOc1cc(/C=N/NC(=O)N(c2ccccc2)c2ccccc2)ccc1O",
    "T/C": "92 % of control"
  },
  {
    "compound": "Cc1ccc(SC(F)(F)C(F)C(F)(F)F)cc1 (centres undefined)",
    "T/C": "100 % of control"
  },
  {
    "compound": "CC(=O)Nc1ccc(S(=O)(=O)NNC(=O)C(=O)Nc2cccc(Cl)c2)cc1",
    "T/C": "86 % of control"
  },
  {
    "compound": "Cn1c2c(c(=O)n(C)c1=O)CS(=O)c1ccccc1N2 (centres undefined)",
    "T/C": "109 % of control"
  },
  {
    "compound": "CC1(C)OC(C)(C)c2c1nnc(-c1ccccc1[N+](=O)[O-])[n+]2[O-]",
    "T/C": "103 % of control"
  },
  {
    "compound": "CCOC(=O)CCC1(C(=O)OC)C(=O)CCCCCCCC1C(=O)OC (centres undefined)",
    "T/C": "115 % of control"
  },
  {
    "compound": "O=C1CC(=O)N(C2CCCCC2)C(=O)N1c1ccccc1S(=O)(=O)Oc1ccccc1",
    "T/C": "100 % of control"
  },
  {
    "compound": "Nc1nc(SCC(=O)O)[nH]c(=O)c1N",
    "T/C": "110 % of control"
  },
  {
    "compound": "CCCCN1C(=O)/C(=C/c2ccccc2OC)SC1=S",
    "T/C": "93 % of control"
  },
  {
    "compound": "Cc1cc(C)nc(NS(=O)(=O)c2ccc(NC(=O)C(Cl)(Cl)Cl)cc2)n1",
    "T/C": "94 % of control"
  },
  {
    "compound": "COC(=O)C(Cc1ccccc1)NS(=O)(=O)c1ccc(C)cc1 (centres undefined)",
    "T/C": "97 % of control"
  },
  {
    "compound": "Cc1cc(-c2ccc(NC(=O)Nc3cccc(F)c3)c(C)c2)ccc1NC(=O)Nc1cccc(F)c1",
    "T/C": "104 % of control"
  },
  {
    "compound": "Nc1ccc(N2N=C(N3CCCC3)CC2=O)cc1",
    "T/C": "94 % of control"
  },
  {
    "compound": "COc1cc(-c2ccc(NC(=O)NC3CC3)c(OC)c2)ccc1NC(=O)NC1CC1",
    "T/C": "88 % of control"
  },
  {
    "compound": "CNC(=O)c1ccccc1C1(O)c2ccccc2CCc2ccccc21",
    "T/C": "100 % of control"
  },
  {
    "compound": "CC1(C)OC(C)(C)c2c1nnc(-c1cccc([N+](=O)[O-])c1)[n+]2[O-]",
    "T/C": "113 % of control"
  },
  {
    "compound": "COc1ccc(/C=C2\\SC(=O)N(C)C2=O)cc1OC",
    "T/C": "93 % of control"
  },
  {
    "compound": "c1cnc2c(OCCOCCOCCOCCOc3cccc4cccnc34)cccc2c1",
    "T/C": "121 % of control"
  },
  {
    "compound": "COc1cc(/C=N/NC(=O)COCC(=O)N/N=C/c2ccc(O)cc2OC)ccc1O",
    "T/C": "91 % of control"
  },
  {
    "compound": "Cc1ccc(/C=C2\\SC(=S)N(C3CC3)C2=O)cc1",
    "T/C": "98 % of control"
  },
  {
    "compound": "COc1ccc(/C=C2\\SC(=S)N(C3CC3)C2=O)cc1OC",
    "T/C": "100 % of control"
  },
  {
    "compound": "CCOC(=O)c1ccc(N2C(=O)OC(C)(C)C2=O)cc1",
    "T/C": "95 % of control"
  },
  {
    "compound": "CCC(C)C(NS(=O)(=O)c1ccc(C)cc1)C(=O)O (centres undefined)",
    "T/C": "92 % of control"
  },
  {
    "compound": "CCC(NN)C(=O)OCc1ccccc1 (centres undefined)",
    "T/C": "104 % of control"
  }
]
